All figures here come from the supplement of paper PMC6757056.

# normalized RNA/DNA level with ligand (log10) annotations
B1: library; a variant is named by its letters at N, in order (parent)
chain: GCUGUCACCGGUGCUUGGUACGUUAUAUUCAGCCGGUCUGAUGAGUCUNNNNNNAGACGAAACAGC

Variants of: B1
Experiment: normalized RNA/DNA level with ligand (relative to sTRSVctl = 100) (log10 (% of sTRSVctl)); HEK293T overexpressing SLC46A1; ligand concentration (+) RNA-Seq: 6 mM; higher = less ribozyme self-cleavage, higher mRNA level
Settings: with (6R,S)-folinic acid; ligand present: yes
Format: numeric value only, no unit, no commentary.

CAAACC    2.02

Let us examine a further case.
Enquiry: Determine from records and report normalized RNA/DNA level with ligand (log10) for `CAGGAC`
Return: 1.97
